measured_on: T1, human SIRPα v2 ECD recombinant protein (human)
T1 construct: extracellular domain; Coated on the ELISA plate
test_description: competitive ELISA, plate-coated human SIRPα v2 ECD; blocked ligand: mFc tagged human CD47 ECD
Experimental: Competitive ELISA assay was used to determine whether the purified chimeric antibodies can block CD47 and SIRPα interaction. Briefly, antibody and mFc tagged human CD47 ECD recombinant protein were co-incubated with ELISA microplate coated human SIRPα v1 ECD or human SIRPα v2 ECD recombinant protein. […] OD 450 nm was read. Blocking ratio was determined by blockade of human SIRPα ECD recombinant protein binding to ELISA microplate coated human CD47 ECD recombinant protein. […]
Below, each entry is listed alongside its reported pIC50.
A value of pIC50 is the negative decimal logarithm of a concentration given in moles per litre.

binder	pIC50
Anti-SIRPα antibody C25 (antibody, V domains shown, Mouse variable regions; also called 025c; 025) VH: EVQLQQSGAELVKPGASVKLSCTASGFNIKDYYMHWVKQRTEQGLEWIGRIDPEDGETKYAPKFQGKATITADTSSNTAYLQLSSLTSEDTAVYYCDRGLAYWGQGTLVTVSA VL: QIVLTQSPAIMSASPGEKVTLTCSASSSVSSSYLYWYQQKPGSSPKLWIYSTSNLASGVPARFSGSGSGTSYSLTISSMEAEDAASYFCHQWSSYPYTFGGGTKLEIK	8.66

query: Recorded pIC50 of Anti-SIRPα antibody C73 (antibody, human IgG4, V domains shown, Mouse variable regions; also called 073c; 073C) VH: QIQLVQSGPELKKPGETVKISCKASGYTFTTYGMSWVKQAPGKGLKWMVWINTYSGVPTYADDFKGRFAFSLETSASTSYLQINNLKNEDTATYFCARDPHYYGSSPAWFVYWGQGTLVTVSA VL: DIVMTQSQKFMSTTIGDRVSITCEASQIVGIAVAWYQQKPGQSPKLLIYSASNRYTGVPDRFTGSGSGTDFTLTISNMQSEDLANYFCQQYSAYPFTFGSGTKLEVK , please.
result: 8.31
